Biological target: human mGlu2 receptor (Homo sapiens, UniProt Q14416)
Construct: expressed in transfected cells; host or cells: CHO cells (membrane preparation)
Sequence (Q14416 19-872): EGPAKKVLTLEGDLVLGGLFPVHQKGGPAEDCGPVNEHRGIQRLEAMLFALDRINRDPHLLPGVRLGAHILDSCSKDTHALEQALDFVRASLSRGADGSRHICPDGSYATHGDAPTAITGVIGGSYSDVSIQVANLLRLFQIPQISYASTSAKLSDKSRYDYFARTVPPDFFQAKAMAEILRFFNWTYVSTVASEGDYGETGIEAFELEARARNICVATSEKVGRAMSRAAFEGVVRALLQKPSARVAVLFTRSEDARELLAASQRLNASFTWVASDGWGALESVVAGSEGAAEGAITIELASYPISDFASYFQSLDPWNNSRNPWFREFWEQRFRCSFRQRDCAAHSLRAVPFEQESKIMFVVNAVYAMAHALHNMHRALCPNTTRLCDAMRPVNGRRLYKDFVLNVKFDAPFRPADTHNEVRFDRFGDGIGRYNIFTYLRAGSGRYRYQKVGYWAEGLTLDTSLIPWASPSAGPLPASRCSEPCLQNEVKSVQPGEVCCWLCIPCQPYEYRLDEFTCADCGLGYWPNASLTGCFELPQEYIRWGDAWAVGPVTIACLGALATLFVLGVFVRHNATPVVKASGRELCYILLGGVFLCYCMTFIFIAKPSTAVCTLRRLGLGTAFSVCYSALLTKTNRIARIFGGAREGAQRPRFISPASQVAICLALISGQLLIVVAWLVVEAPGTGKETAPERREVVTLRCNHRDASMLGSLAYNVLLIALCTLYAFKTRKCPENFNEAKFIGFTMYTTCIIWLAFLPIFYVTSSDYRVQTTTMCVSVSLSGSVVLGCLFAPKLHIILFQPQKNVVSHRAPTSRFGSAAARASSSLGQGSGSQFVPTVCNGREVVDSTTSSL
Experiment: [35S]GTPγS binding assay (mGluR2 negative allosteric modulation)
Assay type: biochemical
Conditions: membranes from CHO cells transfected with human mGlu2 receptor; glutamate 60 μM; pIC50 = −log IC50 (M); read-out: GTPγS - hmGluR2 anGT pIC50 (converted)
experimental-endpoint: IC50 (M)

Record excerpt, results attached:
compound	target	IC50 / M
Cc1cc(-c2cnn3c2C(=O)N(c2ccccc2)C[C@@H]3C)ccn1	human mGlu2 receptor (Homo sapiens, UniProt Q14416)	1e-06
CCCNc1cc(-c2cnn3c2C(=O)N(c2ccc(C(F)(F)F)c(C)c2)C[C@@H]3C)ccn1	human mGlu2 receptor (Homo sapiens, UniProt Q14416)	6.03e-09
CCOc1ccc(N2C[C@H](C)n3ncc(-c4ccnc(C)c4)c3C2=O)cc1.Cl [compound 81, hydrochloride salt]	human mGlu2 receptor (Homo sapiens, UniProt Q14416)	5.37e-07

(1) C[C@H]1CN(c2ccc(C(F)(F)F)c(F)c2)C(=O)c2c(-c3ccncc3)cnn21
(2) Cc1cc(-c2cnn3c2C(=O)N(c2ccc(C(F)(F)F)cc2)CC3C(C)O)ccn1 (stereo not shown)
(3) C[C@H]1CN(c2ccc(C(F)(F)F)cc2)C(=O)c2c(-c3cccnc3)cnn21
Sort (3 compounds) by IC50: min first. Answer by listing the labels in the requested order.
1, 3, 2
(1: 3.16e-08 M, 3: 5.62e-07 M, 2: 4.47e-06 M)

(a) COc1cc(-c2cnn3c2C(=O)N(c2ccc(Cl)c(Cl)c2)C[C@@H]3C)cc(C)n1
(b) Cc1cc(-c2cnn3c2C(=O)N(c2ccc(C(F)(F)F)c(F)c2)CC3)ccn1
(c) C[C@H]1CN(c2ccc(C(F)(F)F)cc2)C(=O)c2c(-c3ccnc(N)c3)cnn21
Please rank these compounds by IC50 in descending order. Answer by listing the labels in the requested order.
b, c, a

(1) COc1cc(-c2cnn3c2C(=O)N(c2ccc(C(F)(F)F)c(OC)c2)C[C@@H]3C)ccn1
(2) CCOc1nc(N2C[C@H](C)n3ncc(-c4ccncc4)c3C2=O)ccc1C(F)(F)F
(3) CC[C@@H]1CN(c2ccc(C(F)(F)F)cc2)C(=O)c2c(-c3ccnc(C)c3)cnn21
Sort (3 compounds) by IC50: min first. Answer by listing the labels in the requested order.
1, 2, 3

---

Biological target: human mGlu2 receptor (Homo sapiens)
Construct: expressed in transfected cells; host or cells: CHO cells (membrane preparation)
Test: [35S]GTPγS binding assay (mGluR2 negative allosteric modulation)
Assay type: biochemical
Conditions: relative maximal effect: maximal % inhibition relative to the control glutamate response; read-out: GTPγS - hmGluR2 anGT Emax
experimental-endpoint: Emax (%)

molecule	Emax, %
Cc1cc(-c2cnn3c2C(=O)N(c2ccc(Cl)c(Cl)c2)C[C@@H]3C)cc(C)n1 [compound 47]	105
C[C@H]1CN(c2ccc(Cl)c(C(F)(F)F)c2)C(=O)c2c(-c3ccncc3)cnn21 [compound 68]	100
COc1cc(Cl)ccc1N1C[C@H](C)n2ncc(-c3ccnc(C)c3)c2C1=O [compound 161]	76
C[C@H]1CN(c2ccc(C(F)(F)F)cc2)C(=O)c2c(-c3ccc(N)nc3)cnn21 [compound 37]	99
CCOc1ccc(Cl)c(N2C[C@H](C)n3ncc(-c4ccnc(C)c4)c3C2=O)n1 [compound 195]	92
Cc1cc(-c2cnn3c2C(=O)N(c2ccc(C(F)(F)F)c(Cl)n2)C[C@@H]3C)ccn1 [compound 188]	108
C[C@H]1CN(c2ccc(Cl)cc2)C(=O)c2c(-c3ccncc3)cnn21 [compound 73]	102

---

Target: human mGlu2 receptor (Homo sapiens, UniProt Q14416)
Construct: expressed in transfected cells; host or cells: CHO cells (membrane preparation)
Experiment: [35S]GTPγS binding assay (mGluR2 negative allosteric modulation)
Assay type: biochemical
Details: membranes from CHO cells transfected with human mGlu2 receptor; glutamate 60 μM; pIC50 = −log IC50 (M); read-out: GTPγS - hmGluR2 anGT pIC50 (converted)
experimental-endpoint: IC50 (M)

(a) COc1cc(-c2cnn3c2C(=O)N(c2ccc(Cl)c(Cl)c2)C[C@@H]3C)ccn1
(b) Cc1cc(-c2cnn3c2C(=O)N(c2cccc(C(C)O)c2)C[C@@H]3C)ccn1 (stereo partly shown)
(c) CC(C)Nc1cc(-c2cnn3c2C(=O)N(c2ccc(C(F)(F)F)cc2)C[C@@H]3C)ccn1
(d) Cc1cc(-c2cnn3c2C(=O)N(c2cc(F)cc(F)c2)C[C@@H]3C)ccn1
Sort the listed compounds above so the one with the largest IC50 comes first and the smallest comes last. Answer by listing the labels in the requested order.
b, d, c, a

(I) Cc1cc(-c2cnn3c2C(=O)N(c2ccc(C(F)(F)F)c(CF)c2)C[C@@H]3C)ccn1
(II) Cc1cc(-c2cnn3c2C(=O)N(c2cc(F)cc(Cl)c2)C[C@@H]3C)ccn1
(III) Cc1cc(-c2cnn3c2C(=O)N(c2ccc(C(C)(C)C)cc2)C[C@@H]3C)ccn1
(IV) CCOc1cc(N2CCn3ncc(-c4ccnc(C)c4)c3C2=O)ccc1C(F)(F)F
Please rank these compounds by IC50 in descending order. Answer by listing the labels in the requested order.
IV, III, II, I

(1) Cc1cc(-c2cnn3c2C(=O)N(c2ccc(Cl)c(F)c2)C[C@@H]3C)ccn1
(2) CC(C)Nc1cc(-c2cnn3c2C(=O)N(c2ccc(C(F)(F)F)c(Cl)c2)C[C@@H]3C)ccn1
Pick one: 1 or 2 . Which has the bigger IC50 number? Answer with the label corresponding to your selection.
1

(1) C[C@H]1CN(c2ccc(C(F)(F)F)c(Cl)c2)C(=O)c2c(-c3ccnc(N4CCC4)c3)cnn21
(2) Cc1cc(-c2cnn3c2C(=O)N(c2cc(F)cc(OC(F)F)c2)C[C@@H]3C)ccn1
(3) Cc1cc(-c2cnn3c2C(=O)N(c2ccc(Cl)c(Cl)c2)CC3CF)ccn1 (single isomer, unassigned) [compound 115]
(4) Cc1cc(-c2cnn3c2C(=O)N(c2cc(Cl)cc(Cl)c2)C[C@@H]3C)ccn1
Please rank these compounds by IC50 in descending order. Answer by listing the labels in the requested order.
2, 4, 3, 1

(I) COCc1cc(-c2cnn3c2C(=O)N(c2ccc(C(F)(F)F)cc2)C[C@@H]3C)ccn1
(II) Cc1cc(-c2cnn3c2C(=O)N(c2ccc(Cl)c(C(F)(F)F)c2)C[C@@H]3C)cc(C)n1
Record comparison, field IC50: mark the lower of I and II . Answer with the label corresponding to your selection.
II
(II: 1.05e-08 M, I: 6.92e-08 M)

---

# ED50 per record follows
System: rats
Experiment: Reversal of the effect of the mGluR2 PAM JNJ-42153605 on scopolamine-induced hyperlocomotion
Format: in vivo
Conditions: Rattus norvegicus, 1 h, Route PO, test compound 60 min before recording, criterion total distance >1500 cm
Express it in mg/kg; write the number only.

compound	target	ED50 (mg/kg)
COc1cc(-c2cnn3c2C(=O)N(c2ccc(Cl)c(Cl)c2)C[C@@H]3C)ccn1	rats	1.99
CCOc1nc(N2C[C@H](C)n3ncc(-c4ccnc(C)c4)c3C2=O)ccc1C(F)(F)F (single isomer, unassigned)	rats	3.15
C[C@H]1CN(c2ccc(C(F)(F)F)cc2)C(=O)c2c(-c3ccnc(N(C)C)c3)cnn21	rats	0.5

Answer with reported ED50 of `C[C@H]1CN(c2ccc(C(F)(F)F)cc2)C(=O)c2c(-c3ccnc(C#N)c3)cnn21`
1.99

---

Target: human mGlu2 receptor (Homo sapiens, UniProt Q14416)
Construct: expressed in transfected cells; host or cells: CHO cells (membrane preparation)
Experiment: [35S]GTPγS binding assay (mGluR2 negative allosteric modulation)
Format: biochemical
Conditions: membranes from CHO cells transfected with human mGlu2 receptor; glutamate 60 μM; pIC50 = −log IC50 (M); read-out: GTPγS - hmGluR2 anGT pIC50 (converted)
experimental-endpoint: IC50 (M)

Record excerpt, results attached:
compound	experimental-endpoint	observed-result
CN(C)c1cc(-c2cnn3c2C(=O)N(c2ccc(Cl)c(Cl)c2)CC3CF)ccn1 (single isomer, unassigned) [compound 91]	IC50	5.62e-08
COc1nc(N2C[C@H](C)n3ncc(-c4ccnc(C)c4)c3C2=O)ccc1Cl	IC50	1.78e-08

(1) CC(=O)N1CCN(c2cc(-c3cnn4c3C(=O)N(c3ccc(C(F)(F)F)cc3)C[C@@H]4C)ccn2)CC1
(2) Cc1cc(-c2cnn3c2C(=O)N(c2ccc(C(F)(F)F)cc2)CC3CF)ccn1 (stereo not shown)
(3) Cc1cc(-c2cnn3c2C(=O)N(c2ccc(C(F)(F)F)cc2)CC3C(F)F)ccn1 (stereo not shown)
(4) C[C@H]1CN(c2ccc(C(F)(F)F)cc2)C(=O)c2c(-c3ccc(N)nc3)cnn21
(5) CCOc1ccc(N2C[C@H](C)n3ncc(-c4ccnc(C)c4)c3C2=O)cc1Cl
Please rank these compounds by IC50 in descending order. Answer by listing the labels in the requested order.
4, 1, 3, 5, 2
